Origin of measurements: patent US20030158387A1

- TARGET SYSTEM: chemokine receptor 1 (CCR1) (UniProt P56482)
- ASSAY NAME: competition with 125I-RANTES, membranes of CHO-K1 cells expressing CCR1, filtration, one site competition model; 125I-Rantes tracer, CCR1 membranes
READOUT KIND: IC50 (nM)
Report only the number, with the unit nM understood.

Exercise: Quick one: IC50 for processed human chemokine PHC-1 (HCC-1[9-74]) (ligand) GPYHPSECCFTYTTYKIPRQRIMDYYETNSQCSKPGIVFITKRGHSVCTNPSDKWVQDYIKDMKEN ?
Key: 2.3
